- tgt: human tau oligomers (human, UniProt P10636-6 2-383, limits assumed)
- Sequence (P10636 other isoform, or with tags, fused parts or gaps limits assumed): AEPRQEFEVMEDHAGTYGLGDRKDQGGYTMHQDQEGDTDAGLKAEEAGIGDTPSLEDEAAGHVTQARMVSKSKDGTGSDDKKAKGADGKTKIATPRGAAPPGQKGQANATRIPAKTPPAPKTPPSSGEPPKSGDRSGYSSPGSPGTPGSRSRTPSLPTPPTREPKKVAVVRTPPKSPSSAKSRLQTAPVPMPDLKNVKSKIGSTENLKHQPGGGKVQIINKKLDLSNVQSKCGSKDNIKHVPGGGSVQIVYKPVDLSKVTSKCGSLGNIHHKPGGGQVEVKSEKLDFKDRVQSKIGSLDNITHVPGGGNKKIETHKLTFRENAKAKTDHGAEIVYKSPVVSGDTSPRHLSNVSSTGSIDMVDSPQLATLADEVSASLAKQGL
- protocol summary: cell-based or functional assay
measure name: LDH released by primary neurons with tau oligomers, antibody at 3 molar equivs

| binder | reported measurement |
| --- | --- |
| mouse 10C12 antibody (antibody, mouse IgG2a, V domains shown, also called m10C12) VH: EVQLQQSGAELVRPGASVKLSCTASGFNIKDDYMNWVKQRPERGLEWIGWIDPENGDTEYASKFQGKATMTADTSSNTAYLQFSSLTSEDTAVYYCTTSNGWGQGTLVTVST VL: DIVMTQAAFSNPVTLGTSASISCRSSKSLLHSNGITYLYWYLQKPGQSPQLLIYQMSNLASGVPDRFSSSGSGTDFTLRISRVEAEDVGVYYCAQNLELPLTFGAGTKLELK | 101 % of control |
| mouse 9F5 antibody (antibody, mouse IgG1, V domains shown, also called m9F5; murine 9F5) VH: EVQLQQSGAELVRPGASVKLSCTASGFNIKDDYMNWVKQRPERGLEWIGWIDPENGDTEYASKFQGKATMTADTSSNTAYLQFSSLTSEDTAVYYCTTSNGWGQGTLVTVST VL: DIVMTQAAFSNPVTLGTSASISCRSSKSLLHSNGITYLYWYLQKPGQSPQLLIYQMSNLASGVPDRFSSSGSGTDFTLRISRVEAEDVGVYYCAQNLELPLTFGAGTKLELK | 95.9 % of control |
| mouse 2D11 antibody (antibody, mouse IgG2a, V domains shown) VH: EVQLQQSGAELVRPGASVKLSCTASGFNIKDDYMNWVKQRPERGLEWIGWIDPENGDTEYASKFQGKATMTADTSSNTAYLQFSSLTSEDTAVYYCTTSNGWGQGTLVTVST VL: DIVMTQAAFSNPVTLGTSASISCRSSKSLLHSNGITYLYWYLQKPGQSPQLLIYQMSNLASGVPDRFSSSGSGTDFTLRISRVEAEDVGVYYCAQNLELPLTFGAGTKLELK | 109 % of control |
| mouse 12C4 antibody (antibody, mouse IgG2a, V domains shown, also called m12C4) VH: EVQLQQSGAELVRPGASVKLSCTASGFNIKDDYMNWVRQRPERGLEWIGWIDPENGDTAYASKFQGKATMTADTSSNTAYLQFSSLTSEDSAVYYCTTSNGWGQGTLVTVSA VL: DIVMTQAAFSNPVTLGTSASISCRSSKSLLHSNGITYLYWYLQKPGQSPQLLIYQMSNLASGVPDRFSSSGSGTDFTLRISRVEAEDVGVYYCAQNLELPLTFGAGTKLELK | 110 % of control |
